Reference for the values: patent US10189845B2

Target: JAK1 (Homo sapiens (Human), UniProt P23458)
Sequence (P23458 whole entry): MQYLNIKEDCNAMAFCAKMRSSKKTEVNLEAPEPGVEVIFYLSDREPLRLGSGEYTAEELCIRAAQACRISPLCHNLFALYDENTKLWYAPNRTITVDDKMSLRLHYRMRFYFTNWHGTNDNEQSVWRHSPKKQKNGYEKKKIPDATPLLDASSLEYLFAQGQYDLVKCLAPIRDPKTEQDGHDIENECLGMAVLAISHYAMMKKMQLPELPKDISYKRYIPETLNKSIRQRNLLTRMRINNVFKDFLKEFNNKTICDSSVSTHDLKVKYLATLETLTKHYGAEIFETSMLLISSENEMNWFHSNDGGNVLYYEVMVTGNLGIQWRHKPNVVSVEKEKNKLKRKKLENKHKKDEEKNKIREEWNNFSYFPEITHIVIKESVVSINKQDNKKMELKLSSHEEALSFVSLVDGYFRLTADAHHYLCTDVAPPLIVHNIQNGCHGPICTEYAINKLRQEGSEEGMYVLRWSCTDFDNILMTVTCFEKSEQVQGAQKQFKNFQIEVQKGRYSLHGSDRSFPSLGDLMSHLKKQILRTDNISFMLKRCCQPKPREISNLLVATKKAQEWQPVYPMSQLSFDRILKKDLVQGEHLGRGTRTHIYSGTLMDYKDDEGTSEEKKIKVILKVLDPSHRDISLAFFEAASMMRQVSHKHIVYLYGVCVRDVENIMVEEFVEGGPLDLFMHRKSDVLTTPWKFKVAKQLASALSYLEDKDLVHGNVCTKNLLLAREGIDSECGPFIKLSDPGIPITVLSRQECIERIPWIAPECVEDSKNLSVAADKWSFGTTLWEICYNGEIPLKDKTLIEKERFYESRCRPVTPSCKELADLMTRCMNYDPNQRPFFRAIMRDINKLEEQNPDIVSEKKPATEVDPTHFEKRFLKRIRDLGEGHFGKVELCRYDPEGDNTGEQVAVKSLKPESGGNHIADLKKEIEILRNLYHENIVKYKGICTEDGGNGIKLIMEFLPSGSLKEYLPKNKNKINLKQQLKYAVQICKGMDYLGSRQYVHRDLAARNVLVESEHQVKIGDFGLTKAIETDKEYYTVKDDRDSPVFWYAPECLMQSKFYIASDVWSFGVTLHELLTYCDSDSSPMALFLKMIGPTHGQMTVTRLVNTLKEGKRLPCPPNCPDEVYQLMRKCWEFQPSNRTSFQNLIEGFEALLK
Assay: JAK1 Inhibition Assay (Example B, Omnia kinase fluorescence peptide substrate assay)
Assay type: biochemical
Procedure: The assays described in Examples A, B, C and D for the determination of Tyk2, JAK1, JAK2 and JAK3 kinase activity, respectively, utilized the Omnia® Kinase fluorescence peptide substrate-based technology (Invitrogen). […] The reactions were therefore read at excitation 360 nm and emission was measured at 485 nm every 50 seconds for 45 minutes using a PerkinElmer EnVision Multilabel Plate Reader. […]
pIC50: −log10 of the molar value.
metric_name: pIC50

These solved cases illustrate the format of a correct answer.
molecule	test_target	pIC50
CCC(CC)n1cc(-c2nc(-c3cnn(C[C@@H](O)COC)c3)cn3nccc23)cn1	JAK1 (Homo sapiens (Human), UniProt P23458)	6.00 to 7.00
CCC(CC)n1cc(-c2nc(-c3cnn(CC(O)CCO)c3)cn3nccc23)cn1 (stereo not shown)	JAK1 (Homo sapiens (Human), UniProt P23458)	6.00 to 7.00
CCC(CC)n1cc(-c2nc(-c3cnn(CC(O)CC(F)(F)F)c3)cn3nccc23)cn1 (stereo not shown)	JAK1 (Homo sapiens (Human), UniProt P23458)	6.00 to 7.00
CCC(CC)n1cc(-c2nc(-c3cnn(C[C@H](O)CCO)c3)cn3nccc23)cn1 (single isomer, unassigned)	JAK1 (Homo sapiens (Human), UniProt P23458)	5.00 to 6.00
CCC(CC)n1cc(-c2nc(-c3cnn(C[C@@H](CN)OC)c3)cn3nccc23)cn1 (single isomer, unassigned)	JAK1 (Homo sapiens (Human), UniProt P23458)	5.00 to 6.00

Challenge: Please report the recorded pIC50 for CCC(CC)n1cc(-c2nc(-c3cnn(C[C@@H](O)CCO)c3)cn3nccc23)cn1 (single isomer, unassigned) .
Response given: 6.00 to 7.00

Challenge: Look up pIC50 for this molecule: CCC(CC)n1cc(-c2nc(-c3cnn(C[C@H](CN)OC)c3)cn3nccc23)cn1 (single isomer, unassigned)
Response given: 5.00 to 6.00

----------
The entries below are paired with their reported pIC50.
biological target: JAK1 (Homo sapiens (Human), UniProt P23458); assay: JAK1 Inhibition Assay (Example B, Omnia kinase fluorescence peptide substrate assay); assay type: biochemical
pIC50: −log10 of the molar value.

smiles_notation	pIC50
CCC(CC)n1cc(-c2nc(-c3cnn(C4CN(C(=O)NC)C4)c3)cn3nccc23)cn1	7.00 to 8.00
CCC(CC)n1cc(-c2nc(-c3cnn(C[C@@H](N)CO)c3)cn3nccc23)cn1	5.00 to 6.00
CCC(CC)n1cc(-c2nc(-c3cnn(C4CN(C(=O)CO)C4)c3)cn3nccc23)cn1	6.00 to 7.00

--- query ---
Challenge: Consider the compound shown here: CCC(CC)n1cc(-c2nc(-c3cnn(CCCS(C)(=O)=O)c3)cn3nccc23)cn1 What is its recorded pIC50?
Response given: 5.00 to 6.00

----------
biological target: JAK1 (Homo sapiens (Human), UniProt P23458); experiment: JAK1 Inhibition Assay (Example B, Omnia kinase fluorescence peptide substrate assay); type: biochemical; conditions: JAK1 Enzyme IC50 1 mM ATP, 1 mM ATP; averaged IC50 ranges
metric_name: IC50

Challenge: API: value(readout= IC50, system= JAK1 (Homo sapiens (Human), UniProt P23458), query= CC[C@H]1CCC[C@H]1n1cc(-c2nc(-c3cnn(C[C@@H](O)CO)c3)cn3nccc23)cn1 (single isomer, unassigned) )
Response given: 1000 to 10000 nM

Challenge: Report IC50 for CCC(CC)n1cc(-c2nc(-c3cnn([C@H]4CCC[C@@H]4O)c3)cn3nccc23)cn1 (single isomer, unassigned) tested on JAK1 (Homo sapiens (Human), UniProt P23458).
Response given: 100 to 1000 nM

Challenge: Recorded IC50 for CCC(CC)n1cc(-c2nc(-c3cnn(C[C@H](O)CN4CC(OC)C4)c3)cn3nccc23)cn1 with JAK1 (Homo sapiens (Human), UniProt P23458), please?
Response given: 1000 to 10000 nM

Challenge: Request - read-out IC50 | tested on JAK1 (Homo sapiens (Human), UniProt P23458) | compound CCC(CC)n1cc(-c2nc(-c3cnn(CC(O)CO)c3)cn3nccc23)cn1 (centres unmarked)
Response given: 100 to 1000 nM

Challenge: Checklist item: IC50 tested on JAK1 (Homo sapiens (Human), UniProt P23458), entry CCC(CC)n1cc(-c2nc(-c3cnn(C[C@H](C)CO)c3)cn3nccc23)cn1 , value?
Response given: 10 to 100 nM

Challenge: Request - read-out IC50 | tested on JAK1 (Homo sapiens (Human), UniProt P23458) | compound CC[C@H](C1CCC1)n1cc(-c2nc(-c3cnn(C[C@@H](O)CO)c3)cn3nccc23)cn1 (single isomer, unassigned)
Response given: 1000 to 10000 nM

Challenge: # returns recorded IC50 (system: JAK1 (Homo sapiens (Human), UniProt P23458)) for CCC(n1cc(-c2nc(-c3cnn(C[C@@H](O)CO)c3)cn3nccc23)cn1)C(F)(F)F (some centres unmarked)
Response given: 1000 to 10000 nM

Challenge: Request - read-out IC50 | tested on JAK1 (Homo sapiens (Human), UniProt P23458) | compound CCC(CC)n1cc(-c2nc(-c3cnn(C[C@H](O)CN(C)C)c3)cn3nccc23)cn1
Response given: 1000 to 10000 nM

Challenge: Form field - read-out: IC50; system: JAK1 (Homo sapiens (Human), UniProt P23458); submitted item: C[C@@H]1CCCC[C@H]1n1cc(-c2nc(-c3cnn(C[C@H](O)CO)c3)cn3nccc23)cn1 (single isomer, unassigned)
Response given: 1000 to 10000 nM

Challenge: // fetch JAK1 (Homo sapiens (Human), UniProt P23458) IC50 for CCC(CC)n1cc(-c2nc(-c3cnn(CC(C)(C)CO)c3)cn3nccc23)cn1
Response given: 10 to 100 nM
